method summary: Volume of distribution at steady state in Sprague-Dawley rat at 1 mg/kg, iv
Type: ADME, organism-based
Parameters: dose 1 mg/kg, route intravenous
condition label: in vivo, read-out: Vdss
Overview of recorded Vd for various compounds

Cn1cc(C(=O)Nc2ccc(-c3ccccc3)c(C(F)(F)F)c2)c(=O)c2ccccc21 :: 11 L/kg

Lookup result for `Cn1cc(C(=O)Nc2ccc(-c3ccccc3)c(C(F)(F)F)c2)c(=O)c2cnccc21` ; measured Vd: 9.2 L/kg

Lookup result for `Cn1cc(C(=O)Nc2ccc(-c3ccccc3)c(C(F)(F)F)n2)c(=O)c2cnccc21` ; measured Vd: 5.1 L/kg

---

Overview of recorded pEC50 for various compounds
target entity: Sphingosine 1-phosphate receptor 1 (Homo sapiens)
method summary: Agonist activity at human S1P1 receptor expressed in human U2OS cells co-expressing eGFP assessed as receptor internalization into cytoplasm using Hoechst dye staining
// pEC50 is dimensionless: -log10 of concentration (M)

Here's what some known entries look like.
CCCCCCCCCCCCC/C=C/[C@@H](O)[C@@H](N)COP(=O)(O)O :: 7.74
Cn1cc(C(=O)Nc2cnc(-c3ccccc3)c(C(F)(F)F)c2)c(=O)c2ccccc21 :: 5.54
Cn1cc(C(=O)Nc2ccc(-c3ccccc3)c(C(F)(F)F)c2)c(=O)c2ccncc21 :: 7.54
Cn1cc(C(=O)Nc2ccc(-c3ccccc3)c(C(F)(F)F)n2)c(=O)c2ccccc21 :: 7.38

Let us examine a further case.
Lookup result for `Cn1cc(C(=O)Nc2ccc(-c3ccccn3)c(C(F)(F)F)c2)c(=O)c2ccccc21` ; measured pEC50: 7.22

---

Overview of recorded microsomal CLint for various compounds
method summary: Intrinsic clearance in rat liver microsomes assessed per mg of protein after 30 mins
Format: ADME, Microsome
condition label: read-out: CLH

Here's what some known entries look like.
Cn1cc(C(=O)Nc2ccc(-c3ccccn3)c(C(F)(F)F)n2)c(=O)c2cnccc21 :: < 14 µL/min/mg
Cn1cc(C(=O)Nc2ccc(-c3ccncc3)c(C(F)(F)F)c2)c(=O)c2ccccc21 :: 44 µL/min/mg
Cn1nc(C(=O)Nc2ccc(-c3ccccc3)c(C(F)(F)F)c2)c(=O)c2ccccc21 :: < 14 µL/min/mg
Cn1cc(C(=O)Nc2ccc(-c3ccccn3)c(C(F)(F)F)c2)c(=O)c2ccccc21 :: < 14 µL/min/mg

Lookup result for `Cn1cc(C(=O)Nc2ccc(-c3ccccc3)c(C(F)(F)F)c2)c(=O)c2ccncc21` ; measured microsomal CLint: < 14 µL/min/mg

---

method summary: Plasma concentration in Lewis rat at 3 mg/kg, po after 24 hrs
Assay type: ADME, organism-based
Set-up: dose 3 mg/kg, route oral
measurement kind: concentration at 24 h (ng/mL)
// note: answer is a bare numeric in ng/mL

Cn1cc(C(=O)Nc2ccc(-c3ccccc3)c(C(F)(F)F)n2)c(=O)c2cnccc21 :: 640

Lookup result for `Cn1cc(C(=O)Nc2ccc(-c3ccccc3)c(C(F)(F)F)c2)c(=O)c2ccccc21` ; measured concentration at 24 h: 48

Lookup result for `Cn1cc(C(=O)Nc2ccc(-c3ccccc3)c(C(F)(F)F)c2)c(=O)c2cnccc21` ; measured concentration at 24 h: 1100

---

target entity: Sphingosine 1-phosphate receptor 1 (Homo sapiens, UniProt P21453)
Sequence (P21453 whole entry): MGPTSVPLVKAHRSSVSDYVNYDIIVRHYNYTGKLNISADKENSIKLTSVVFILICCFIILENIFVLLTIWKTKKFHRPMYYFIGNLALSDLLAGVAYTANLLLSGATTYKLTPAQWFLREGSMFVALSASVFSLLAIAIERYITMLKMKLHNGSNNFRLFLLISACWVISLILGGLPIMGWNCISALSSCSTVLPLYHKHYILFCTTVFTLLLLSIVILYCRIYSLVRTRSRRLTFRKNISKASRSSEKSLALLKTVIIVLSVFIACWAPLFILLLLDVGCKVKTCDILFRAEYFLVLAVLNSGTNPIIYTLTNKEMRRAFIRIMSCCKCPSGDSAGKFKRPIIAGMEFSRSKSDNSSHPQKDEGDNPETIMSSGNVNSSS
method summary: Agonist activity at human S1P1 receptor expressed in human U2OS cells co-expressing eGFP assessed as receptor internalization into cytoplasm using Hoechst dye staining
measurement kind: pEC50
// pEC50 is dimensionless: -log10 of concentration (M)

Here's what some known entries look like.
Cn1nc(C(=O)Nc2ccc(-c3ccccc3)c(C(F)(F)F)c2)c(=O)c2ccccc21 :: 7.39
Cn1cc(C(=O)Nc2ccc(-c3ccccc3)c(C(F)(F)F)n2)c(=O)c2cnccc21 :: 7.70

Lookup result for `Cn1cc(C(=O)Nc2cc(C(F)(F)F)c(-c3ccccc3)cn2)c(=O)c2ccccc21` ; measured pEC50: 5.96

Lookup result for `Cn1cc(C(=O)Nc2ccc(-c3ccccc3)c(C(F)(F)F)c2)c(=O)c2ccccc21` ; measured pEC50: 7.15

Lookup result for `Cn1cc(C(=O)Nc2ccc(-c3ccccn3)c(C(F)(F)F)c2)c(=O)c2cnccc21` ; measured pEC50: 6.70
